- SYSTEM_NAME: OAT3 (Homo sapiens)
- Construct: NM_004254.3, baculovirus-transduced HEK293 cells
- Sequence (Q8TCC7 1-542): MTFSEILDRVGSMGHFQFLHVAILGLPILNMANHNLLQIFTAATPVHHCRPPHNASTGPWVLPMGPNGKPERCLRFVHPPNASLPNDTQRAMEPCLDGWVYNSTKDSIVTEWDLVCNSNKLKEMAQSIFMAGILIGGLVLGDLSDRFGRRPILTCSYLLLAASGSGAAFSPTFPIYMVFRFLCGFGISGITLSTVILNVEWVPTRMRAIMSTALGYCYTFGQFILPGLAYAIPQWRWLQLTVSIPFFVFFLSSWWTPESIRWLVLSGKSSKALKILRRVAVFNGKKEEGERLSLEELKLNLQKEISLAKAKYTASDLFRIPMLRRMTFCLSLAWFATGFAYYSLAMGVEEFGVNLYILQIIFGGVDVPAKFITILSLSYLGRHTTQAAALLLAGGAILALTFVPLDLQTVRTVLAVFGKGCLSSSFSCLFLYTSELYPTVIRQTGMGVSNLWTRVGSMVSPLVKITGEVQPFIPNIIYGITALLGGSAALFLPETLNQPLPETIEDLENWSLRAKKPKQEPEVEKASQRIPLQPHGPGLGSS
- ASSAY_EXPLANATION: inhibition of [3H]-E1S uptake (Ki); LC-MS/MS uptake in OAT3-HEK293 cells (Km […])
READOUT_KIND: Ki (µM)
Please reply with the bare figure in µM and do not write the unit itself.

The measured Ki associated with `C[C@H](N[C@@H](CCc1ccccc1)C(=O)O)C(=O)N1CCC[C@H]1C(=O)O` reads 134
